Test system: CD2F1 mice, L1210 leukemia ip, survival T/C
Experiment: NCI In Vivo Anticancer Drug Screen. Data for tumor model L1210 Leukemia (intraperitoneal) in CD2F1 (CDF1) mice
Settings: endpoint: mean survival time; dose: 400.0 mg/kg/injection; schedule: Q01DX009 (ip); vehicle: saline with Tween-80; higher = longer survival
Method: The antitumor activity of compounds was measured in mice bearing transplantable tumors. Survival or tumor size were measured and the results are expressed as the measurement made in the treated group (T) divided by the measurement made in the vehicle treated control group (C). The tumor model used in this assay is L1210 Leukemia (intraperitoneal) in CD2F1 (CDF1) mice
Inconclusive results and toxic doses are left out.
In this section, each of the compounds is paired with its reported T/C.

{"COMPOUND": "Cc1cc(C)cc(NC(=O)c2ccccc2N)c1", "T/C": "107 % of control"}
{"COMPOUND": "COC(c1ccccc1)C(Br)c1ccccc1 (stereo not given)", "T/C": "109 % of control"}
{"COMPOUND": "BrC1CC2CC1C1C=CCC21 (stereo not given)", "T/C": "101 % of control"}
{"COMPOUND": "CCOc1nc(OCC)nc(-c2cccn2-c2ccccc2)n1", "T/C": "93 % of control"}
{"COMPOUND": "O=C(CC(=O)c1ccccc1F)Nc1ccc([N+](=O)[O-])cc1", "T/C": "88 % of control"}
{"COMPOUND": "CC(=O)c1c(C(C)C)cc(C(C)C)cc1C(C)C", "T/C": "101 % of control"}
{"COMPOUND": "CCN(CC)c1nc(Cl)nc(NC(C)C)n1", "T/C": "94 % of control"}
{"COMPOUND": "CC(=O)NCCN=Cc1ccccc1", "T/C": "97 % of control"}
{"COMPOUND": "Cc1ccc(S(=O)(=O)OCC(OS(=O)(=O)c2ccc(C)cc2)C2OC(c3ccccc3)OC2C2COC(c3ccccc3)O2)cc1 (stereo not given)", "T/C": "95 % of control"}
{"COMPOUND": "Cc1ccc(NC(=O)c2ccccc2Cl)c(C)c1", "T/C": "98 % of control"}
{"COMPOUND": "COC(=O)c1nc2ccccc2nc1C(=O)OC", "T/C": "102 % of control"}
{"COMPOUND": "CCOC(=O)C1CC(C(=O)OCC)C(=O)C1=O (stereo not given)", "T/C": "97 % of control"}
{"COMPOUND": "NC(=O)N/N=C/C(c1ccccc1)c1ccccc1", "T/C": "103 % of control"}
{"COMPOUND": "CCCCCCOS(=O)OC(C)C(Cl)C(=O)OCC (stereo not given)", "T/C": "100 % of control"}
{"COMPOUND": "CC1(C)CC(C)(c2ccc(O)cc2)c2ccccc2O1 (stereo not given)", "T/C": "91 % of control"}
{"COMPOUND": "Cc1cc(O)c(C(C)C)cc1N=O", "T/C": "87 % of control"}
{"COMPOUND": "Cc1ccc(S(=O)(=O)N2CCC2)cc1", "T/C": "96 % of control"}
{"COMPOUND": "CC(=O)OC1CCC2(C)C(CC=C3C2CCC2(C)C3CCC2C(C)CCCC(C)C)C1 (stereo not given)", "T/C": "91 % of control"}
{"COMPOUND": "COc1ccc(-c2sc(/N=C/c3ccc(-c4ccccc4)cc3)c(C#N)c2C)cc1OC", "T/C": "91 % of control"}
{"COMPOUND": "C=CC(=O)Nc1cccc(OC(=O)NCC)c1", "T/C": "97 % of control"}
